// data source = patent US12084437B2

target: OX1 (Homo sapiens); assay: Orexin receptor cell-based functional assay, [Ca2+]i by FLIPR, CHO-OX1 cells; details: FLIPR calcium, antagonism of EC90 of [OX], read-out: OXI, IC50
Assign labels as follows, please: Met for IC50 below 5 nM; Not met for IC50 equal to or exceeding 5 nM.

Examples from the recorded data:
Cc1nc(C(=O)N2CC(F)(F)C[C@@H](C)[C@H]2CNc2ccc(C(F)(F)F)cn2)c(-c2ccc(F)cc2)s1 [Compound 185]: Met
COc1ccc(-c2sc(C)nc2C(=O)N2CC(F)(F)C[C@@H](C)[C@H]2CNc2cnc(C(F)(F)F)cn2)cc1 [Compound 141]: Not met
Cc1ccccc1-c1cn(C)nc1C(=O)N1CC(F)(F)C[C@@H](C)[C@H]1CNc1ncc(C(F)(F)F)cn1 [Compound 24]: Not met
C[C@@H]1CC(F)(F)CN(C(=O)c2cc(Cl)ccc2-n2nccn2)[C@@H]1CNc1ncc(C(F)(F)F)cn1 [Compound 10]: Not met
C[C@@H]1CC(F)(F)CN(C(=O)c2cc(Cl)ccc2-c2nnn(C)n2)[C@@H]1CNc1ccc(C(F)(F)F)cn1 [Compound 182]: Not met

Is it true that IC50 reported for Cc1cccc(-c2sc(C)nc2C(=O)N2CC(F)(F)C[C@@H](C)[C@H]2CNc2ncc(C(F)(F)F)cn2)n1 [Compound 77] is less than 5 nM? Met

* * *

target: OX1 (Homo sapiens, UniProt O43613); assay: Orexin receptor cell-based functional assay, [Ca2+]i by FLIPR, CHO-OX1 cells; details: FLIPR calcium, antagonism of EC90 of [OX], read-out: OXI, IC50
pIC50: −log10 of the molar value.
Label satisfied when pIC50 is at or above 8; otherwise label not satisfied.

Examples from the recorded data:
C[C@@H]1CC(F)(F)CN(C(=O)c2cnn(C)c2-c2ccccn2)[C@@H]1CNc1ncc(C(F)(F)F)cn1 [Compound 95]: not satisfied
Cc1nc(C(=O)N2CC(F)(F)C[C@@H](C)[C@H]2CNc2ncc(C(F)(F)F)cn2)c(-c2ccc(F)cc2)o1 [Compound 84]: not satisfied
Cc1ccnc(-c2sc(C)nc2C(=O)N2CC(F)(F)C[C@@H](C)[C@H]2CNc2cnc(C(F)(F)F)cn2)c1 [Compound 147]: satisfied

Does pIC50 meet or surpass 8 for Cc1nc(C(=O)N2CC(F)(F)C[C@@H](C)[C@H]2CNc2cnc(C(F)(F)F)cn2)c(-c2cccnc2)o1 [Compound 156] ? not satisfied

Does pIC50 meet or surpass 8 for Cc1ccc(-c2cn(C)nc2C(=O)N2CC(F)(F)C[C@@H](C)[C@H]2CNc2ncc(C(F)(F)F)cn2)cn1 [Compound 89] ? not satisfied

* * *

Biological target: OX1 (Homo sapiens)
Construct: expressed in transfected cells; host or cells: CHO (CHO-OX1)
Sequence (O43613 1-425): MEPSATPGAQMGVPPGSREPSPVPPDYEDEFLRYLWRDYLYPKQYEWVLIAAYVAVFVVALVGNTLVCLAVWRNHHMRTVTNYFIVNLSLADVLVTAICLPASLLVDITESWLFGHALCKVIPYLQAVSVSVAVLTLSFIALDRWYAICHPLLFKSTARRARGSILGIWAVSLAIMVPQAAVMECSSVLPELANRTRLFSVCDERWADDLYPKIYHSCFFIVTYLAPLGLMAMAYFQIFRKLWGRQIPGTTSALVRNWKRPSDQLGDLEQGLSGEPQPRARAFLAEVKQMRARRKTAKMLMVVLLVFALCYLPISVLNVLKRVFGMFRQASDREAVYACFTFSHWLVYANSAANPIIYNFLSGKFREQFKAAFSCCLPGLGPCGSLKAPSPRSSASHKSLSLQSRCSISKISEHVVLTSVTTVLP
Experiment: Orexin receptor cell-based functional assay, [Ca2+]i by FLIPR, CHO-OX1 cells
Settings: FLIPR calcium, antagonism of EC90 of [OX], read-out: OXI, IC50
Procedure: Measurement of [Ca^2+]i using a FLIPR: CHO-OX1 or CHO-OX2 cells were seeded into black-walled clear-base 384-well plates (Corning, catalog #3712) at a density of 20,000 cells per well in F12-K medium supplemented with 10% FBS and then incubated in a 5% CO2, 37° C. incubator overnight to reach 90% confluency. […] The plates were then placed into a FLIPR (Molecular Devices, Inc.) to monitor fluorescence (λ excitation 488 nm, λ emission 540 nm) before and after the addition of EC90 of [OX].
// reported pIC50 for each item listed
Hey, just a heads up that pIC50 is the negative log base 10 of the concentration in molar.

C[C@@H]1CC(F)(F)CN(C(=O)c2nn(C)cc2-c2ncc(Cl)cn2)[C@@H]1CNc1ncc(C(F)(F)F)cn1: 8.15
Cc1nc(C(=O)N2CC(F)(F)C[C@@H](C)[C@H]2CNc2ncc(C(F)(F)F)cn2)c(-c2ncccn2)s1: 8.22

Note pIC50 for the compound shown: C[C@@H]1CC(F)(F)CN(C(=O)c2nn(C)cc2-c2ccccn2)[C@@H]1CNc1cnc(C(F)(F)F)cn1 8.22

Note pIC50 for the compound shown: C[C@@H]1CC(F)(F)CN(C(=O)c2nn(C)cc2-c2ncccn2)[C@@H]1COc1ncc(C(F)(F)F)cc1F 6.36

* * *

Molecular target: OX1 (Homo sapiens)
Sequence (O43613 1-425): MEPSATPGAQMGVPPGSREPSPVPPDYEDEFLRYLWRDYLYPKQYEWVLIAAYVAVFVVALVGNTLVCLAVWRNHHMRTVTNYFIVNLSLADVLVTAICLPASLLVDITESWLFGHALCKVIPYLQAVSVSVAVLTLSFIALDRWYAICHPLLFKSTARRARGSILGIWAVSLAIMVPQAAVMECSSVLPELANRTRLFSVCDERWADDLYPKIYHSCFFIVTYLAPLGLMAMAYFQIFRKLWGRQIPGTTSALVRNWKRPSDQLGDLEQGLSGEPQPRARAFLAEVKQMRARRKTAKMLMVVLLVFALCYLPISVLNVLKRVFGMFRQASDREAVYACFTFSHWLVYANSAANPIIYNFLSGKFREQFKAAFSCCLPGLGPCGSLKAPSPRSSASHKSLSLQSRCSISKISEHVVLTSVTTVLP
Assay: Orexin receptor cell-based functional assay, [Ca2+]i by FLIPR, CHO-OX1 cells
Settings: FLIPR calcium, antagonism of EC90 of [OX], read-out: OXI, IC50
readout-kind: pIC50
Hey, just a heads up that pIC50 is the negative log base 10 of the concentration in molar.

A selection of reference data follows.
C[C@@H]1CC(F)(F)CN(C(=O)c2nn(C)cc2-c2ccccn2)[C@@H]1CNc1ncc(C(F)(F)F)cn1: 7.72
C[C@@H]1CC(F)(F)CN(C(=O)c2nn(C)cc2-c2ncccn2)[C@@H]1COc1cnc(C(F)(F)F)cn1: 7.28
Cc1ccnc(-c2cn(C)nc2C(=O)N2CC(F)(F)C[C@@H](C)[C@H]2CNc2cnc(C(F)(F)F)cn2)c1: 8.40
C[C@@H]1CC(F)(F)CN(C(=O)c2cc(Cl)ccc2-c2ncccn2)[C@@H]1CNc1ncc(C(F)(F)F)cn1: 8.15
Cc1ccnc(-c2cn(C)nc2C(=O)N2CC(F)(F)C[C@@H](C)[C@H]2CNc2ncc(C(F)(F)F)cn2)n1: 7.77
C[C@@H]1CC(F)(F)CN(C(=O)c2cc(Cl)ccc2-c2ncccn2)[C@@H]1CNc1ncc(Cl)cn1: 7.62
C[C@@H]1CC(F)(F)CN(C(=O)c2nn(C)cc2-c2ccccn2)[C@@H]1COc1ccc(C(F)(F)F)cn1: 8.10
Cc1cccc(-c2cn(C)nc2C(=O)N2CC(F)(F)C[C@@H](C)[C@H]2CNc2ncc(C(F)(F)F)cn2)n1: 8.15
COc1cccc(-c2cn(C)nc2C(=O)N2CC(F)(F)C[C@@H](C)[C@H]2CNc2cnc(C(F)(F)F)cn2)c1: 8.40
CCn1cc(-c2ncccn2)c(C(=O)N2CC(F)(F)C[C@@H](C)[C@H]2CNc2ncc(C(F)(F)F)cn2)n1: 7.09

Note pIC50 for the molecule shown: Cc1cccc(-c2sc(C)nc2C(=O)N2CC(F)(F)C[C@@H](C)[C@H]2CNc2ccc(C(F)(F)F)cn2)c1 8.15

Note pIC50 for the molecule shown: COc1ccc(-n2nccn2)c(C(=O)N2CC(F)(F)C[C@@H](C)[C@H]2CNc2ccc(C(F)(F)F)cn2)n1 6.82
